Test: Mouse hypercalcemia assay (six day, serum ionized calcium)
Type: in vivo
Classify: T when Mouse Hypercal is strictly less than 3000 µg/kg/day; F when Mouse Hypercal is not.

I wonder whether CCC(CC)(c1ccc(OCC(=O)O)c(C)c1)c1cc(C)c(CCC(O)C(C)(C)C)s1 (single isomer, unassigned) [Ex. 33A] has Mouse Hypercal below 3000 µg/kg/day. Can you tell? F

What about CCCc1cc(C(CC)(CC)c2ccc(C(=O)O)s2)ccc1OCC(O)C(C)(C)C (single isomer, unassigned) [Ex. 95] ? F

What about CCC(CC)(c1ccc(OCC(C)(O)C(C)(C)C)c(OC)c1)c1ccc(C(=O)NC(C)C(=O)O)s1 (single isomer, unassigned) ? F

What about CCc1cc(C(CC)(CC)c2ccc(C(=O)O)s2)ccc1OCC(O)C(C)(C)C (single isomer, unassigned) [Ex. 101] ? F

What about CCC(CC)(c1ccc(OCC(O)C(C)(C)C)c(C(C)C)c1)c1ccc(C(=O)O)s1 (single isomer, unassigned) [Ex. 98] ? F

What about CCC(CC)(c1ccc(OCC(O)C(C)(C)C)c(C)c1)c1cc(C)c(C(=O)N(C)OC)s1 (single isomer, unassigned) [Ex. 43] ? T

What about C=C1/C(=C\C=C2/CCC[C@]3(C)[C@@H]([C@H](C)CCCC(C)(C)O)CC[C@@H]23)C[C@@H](O)C[C@@H]1O [AA, 1α,25-dihydroxyvitamin D3, reference compound] ? T

What about CCC(CC)(c1ccc(OCC(O)C(C)(C)C)c(C)c1)c1cc(C)c(C(=O)NC(C)(C)C(=O)O)s1 (single isomer, unassigned) [Ex. 77] ? T

What about CCCc1cc(C(CC)(CC)c2ccc(C(=O)N[C@@H](C)C(=O)O)s2)ccc1OCC(C)(O)C(C)(C)C (single isomer, unassigned) ? T

What about CCc1cc(C(CC)(CC)c2ccc(C(=O)N[C@@H](C)C(=O)O)s2)ccc1OCC(C)(O)C(C)(C)C (single isomer, unassigned) ? T

What about CCC(CC)(c1ccc(OCC(O)C(C)(C)C)c(C)c1)c1cc(C)c(C(=O)NC(C)(C)C(=O)O)s1 (single isomer, unassigned) [Ex. 71] ? T

What about CCC(CC)(c1ccc(OCC(=O)C(C)(C)C)c(C)c1)c1ccc(OC[C@H](O)C(C)(C)C)c(C)c1 [EE, reference compound] ? T

What about CCC(CC)(c1ccc(OCC(O)C(C)(C)C)c(C)c1)c1cc(C)c(C(=O)N(C)OC)s1 (single isomer, unassigned) [Ex. 44] ? T

What about CCC(CC)(c1ccc(OCC(=O)C(C)(C)C)c(C)c1)c1ccc(OCC(=O)C(C)(C)C)c(C)c1 [DD, reference compound] ? T

What about CCC(CC)(c1ccc(OCC(=O)O)c(C)c1)c1cc(C)c(CCC(O)C(C)(C)C)s1 (single isomer, unassigned) [Ex. 33B] ? T

What about CCC(CC)(c1ccc(OCC(O)C(C)(C)C)c(C)c1)c1cc(C)c(C(=O)N[C@@H](C)C(=O)O)s1 (some centres unmarked) [Ex. 55] ? T

What about CCC(CC)(c1ccc(OCC(=O)C(C)(C)C)c(C)c1)c1cc(C)c(C(=O)NCC(=O)O)s1 ? F

What about CCC(CC)(c1ccc(OCC(O)C(C)(C)C)c(C)c1)c1cc(C)c(C(=O)Nc2nnn[nH]2)s1 (single isomer, unassigned) ? T

What about CCC(CC)(c1ccc(OCC(O)C(C)(C)C)c(C)c1)c1cc(C)c(C(=O)N[C@@H](C)C(=O)O)s1 (some centres unmarked) [Ex. 65] ? T
